Target: CYP2C8 (Homo sapiens)
Sequence (P10632 1-490): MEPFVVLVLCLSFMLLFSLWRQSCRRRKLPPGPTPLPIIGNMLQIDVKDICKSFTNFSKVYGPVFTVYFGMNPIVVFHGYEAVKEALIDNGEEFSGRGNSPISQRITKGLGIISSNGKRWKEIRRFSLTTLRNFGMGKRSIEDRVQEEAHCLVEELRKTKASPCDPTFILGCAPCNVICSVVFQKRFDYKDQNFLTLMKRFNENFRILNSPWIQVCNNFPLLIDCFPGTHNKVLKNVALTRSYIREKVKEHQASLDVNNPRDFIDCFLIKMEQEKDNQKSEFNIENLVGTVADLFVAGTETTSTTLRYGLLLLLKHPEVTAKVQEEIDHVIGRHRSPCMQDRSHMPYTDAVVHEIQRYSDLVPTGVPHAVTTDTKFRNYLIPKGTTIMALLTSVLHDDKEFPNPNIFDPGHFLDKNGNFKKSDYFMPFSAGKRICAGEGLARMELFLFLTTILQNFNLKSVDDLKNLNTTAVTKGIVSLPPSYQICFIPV
Experiment: Inhibition of recombinant CYP2C8 (probe paclitaxel)
Assay type: in vitro ADME
Measured Property: IC50

Query: Please state recorded IC50 (tested on CYP2C8 (Homo sapiens)) of O=C1CCC[C@@H]2[C@H]3CCCN4CCC[C@@H](CN12)[C@@H]34 [Compound A1, Matrine]
Reply: > 100 µM

----------
Experiment: Stability tests of analytes in rat plasma QC samples
Assay type: in vitro ADME
Conditions: rat plasma, nominal conc. 20 nM
Measured Property: Extracted samples at 8 °C for 18 h, RE (%)
Write the number in % without appending the unit.

// known answers, use as guide
Compound | Extracted samples at 8 °C for 18 h, RE (%)
O=C1C=CC[C@@H]2[C@H]3CCC[N+]4([O-])CCC[C@@H](CN12)[C@@H]34 (stereo partly drawn) | 13.22
CC(C)=CCC[C@](C)(O[C@@H]1O[C@H](CO)[C@@H](O)[C@H](O)[C@H]1O)[C@H]1CC[C@]2(C)[C@@H]1[C@H](O)C[C@@H]1[C@@]3(C)CC[C@H](O[C@@H]4O[C@H](CO)[C@@H](O)[C@H](O)[C@H]4O[C@@H]4O[C@H](CO)[C@@H](O)[C@H](O)[C@H]4O)C(C)(C)[C@@H]3CC[C@]12C [Compound D2, Ginsenoside Rd] | 11.29

In the following, a different compound is considered.
Query: Which value of Extracted samples at 8 °C for 18 h, RE has been reported for CC(C)=CCC[C@](C)(O)[C@H]1CC[C@]2(C)[C@@H]1[C@H](O)C[C@@H]1[C@@]3(C)CC[C@H](O)C(C)(C)[C@@H]3[C@@H](O[C@@H]3O[C@H](CO)[C@@H](O)[C@H](O)[C@H]3O[C@@H]3O[C@H](CO)[C@@H](O)[C@H](O)[C@H]3O)C[C@]12C [Compound C7, Ginsenoside Rf] in the records?
Reply: 13.56

----------
Experiment: Stability tests of analytes in rat plasma QC samples
Assay type: in vitro ADME
Conditions: rat plasma, nominal conc. 100 nM
We begin with a simple list: items and their reported At -80 °C for 48 h, RE.
Respond with the bare value in %.

Compound | At -80 °C for 48 h, RE [%]
CC(C)=CCC[C@](C)(O[C@@H]1O[C@H](CO)[C@@H](O)[C@H](O)[C@H]1O)[C@H]1CC[C@]2(C)[C@@H]1[C@H](O)C[C@@H]1[C@@]3(C)CC[C@H](O)C(C)(C)[C@@H]3[C@@H](O[C@@H]3O[C@H](CO)[C@@H](O)[C@H](O)[C@H]3O[C@@H]3OC[C@@H](O)[C@H](O)[C@H]3O)C[C@]12C [Compound C8, Notoginsenoside R1] | 9.58
CC(C)=CCC[C@](C)(O[C@@H]1O[C@H](CO)[C@@H](O)[C@H](O)[C@H]1O)[C@H]1CC[C@]2(C)[C@@H]1[C@H](O)C[C@@H]1[C@@]3(C)CC[C@H](O[C@@H]4O[C@H](CO)[C@@H](O)[C@H](O)[C@H]4O[C@@H]4O[C@H](CO)[C@@H](O)[C@H](O)[C@H]4O)C(C)(C)[C@@H]3CC[C@]12C [Compound D2, Ginsenoside Rd] | -9.18
CC(C)=CCC[C@](C)(O[C@@H]1O[C@H](CO[C@@H]2O[C@H](CO)[C@@H](O)[C@H](O)[C@H]2O)[C@@H](O)[C@H](O)[C@H]1O)[C@H]1CC[C@]2(C)[C@@H]1[C@H](O)C[C@@H]1[C@@]3(C)CC[C@H](O[C@@H]4O[C@H](CO)[C@@H](O)[C@H](O)[C@H]4O[C@@H]4O[C@H](CO)[C@@H](O)[C@H](O)[C@H]4O)C(C)(C)[C@@H]3CC[C@]12C [Compound D5, Ginsenoside Rb1] | -13.46
CC(C)=CCC[C@](C)(O[C@@H]1O[C@H](CO[C@@H]2OC[C@H](O)[C@H](O)[C@H]2O)[C@@H](O)[C@H](O)[C@H]1O)[C@H]1CC[C@]2(C)[C@@H]1[C@H](O)C[C@@H]1[C@@]3(C)CC[C@H](O[C@@H]4O[C@H](CO)[C@@H](O)[C@H](O)[C@H]4O[C@@H]4O[C@H](CO)[C@@H](O)[C@H](O)[C@H]4O)C(C)(C)[C@@H]3CC[C@]12C [Compound D4, Ginsenoside Rb2] | -12.47
CC(C)(O)[C@@H]1CC[C@](C)([C@H]2[C@@H](O)C[C@@]3(C)[C@@H]4C[C@H](O)[C@H]5C(C)(C)[C@@H](O[C@@H]6OC[C@@H](O)[C@H](O)[C@H]6O[C@@H]6O[C@H](CO)[C@@H](O)[C@H](O)[C@H]6O)CC[C@@]56C[C@@]46CC[C@]23C)O1 [Compound B3, Astragaloside III] | -13.24

Query: Suppose we examine the compound CC(C)=CCC[C@](C)(O)[C@H]1CC[C@]2(C)[C@@H]1[C@H](O)C[C@@H]1[C@@]3(C)CC[C@H](O)C(C)(C)[C@@H]3[C@@H](O[C@@H]3O[C@H](CO)[C@@H](O)[C@H](O)[C@H]3O[C@@H]3O[C@@H](C)[C@H](O)[C@@H](O)[C@H]3O)C[C@]12C [Compound C5, Ginsenoside Rg2] ; what At -80 °C for 48 h, RE value has been reported?
Reply: -8.82

Query: Given CC(C)=CCC[C@](C)(O)[C@H]1CC[C@]2(C)[C@@H]1[C@H](O)C[C@@H]1[C@@]3(C)CC[C@H](O)C(C)(C)[C@@H]3[C@@H](O[C@@H]3O[C@H](CO)[C@@H](O)[C@H](O)[C@H]3O)C[C@]12C [Compound C1, Ginsenoside Rh1] , state its recorded At -80 °C for 48 h, RE.
Reply: -13.03

Query: Look up At -80 °C for 48 h, RE: CC(C)=CCC[C@](C)(O[C@@H]1O[C@H](CO[C@@H]2O[C@@H](CO)[C@H](O)[C@H]2O)[C@@H](O)[C@H](O)[C@H]1O)[C@H]1CC[C@]2(C)[C@@H]1[C@H](O)C[C@@H]1[C@@]3(C)CC[C@H](O[C@@H]4O[C@H](CO)[C@@H](O)[C@H](O)[C@H]4O[C@@H]4O[C@H](CO)[C@@H](O)[C@H](O)[C@H]4O)C(C)(C)[C@@H]3CC[C@]12C [Compound D3, Ginsenoside Rc]
Reply: -10.73

Query: Consider the compound shown here: O=C1CCC[C@@H]2[C@H]3CCCN4CCC[C@@H](CN12)[C@@H]34 What is its recorded At -80 °C for 48 h, RE?
Reply: 13.15

----------
Assay: Urinary (renal) excretion in rats after a 30-min infusion of Kang-Ai injection
Assay type: in vivo, Sprague–Dawley rats
Settings: male, Sprague-Dawley, rat, in vivo, iv
Measured Property: CL renal (mL/min)
Please reply with the bare figure in mL/min and do not write the unit itself.

Query: Look up CL renal for this compound: O=C1CCC[C@@H]2[C@H]3CCC[N+]4([O-])CCC[C@@H](CN12)[C@@H]34 (stereo partly shown)
Reply: 1.18

----------
Test: Urinary (renal) excretion in rats after a 30-min infusion of Kang-Ai injection
Assay type: in vivo, Sprague–Dawley rats
Conditions: male, Sprague-Dawley, urine and plasma; rat; Kang-Ai injection 6 mL/kg iv; read-out: CLR (renal excretory clearance) (converted)
CL renal values for the compounds below.
The figure you give is taken to be in mL/min; do not add the unit.

Compound | Unit Abbreviation | CL renal
CC(C)=CCC[C@](C)(O[C@@H]1O[C@H](CO[C@@H]2O[C@H](CO)[C@@H](O)[C@H](O)[C@H]2O)[C@@H](O)[C@H](O)[C@H]1O)[C@H]1CC[C@]2(C)[C@@H]1[C@H](O)C[C@@H]1[C@@]3(C)CC[C@H](O[C@@H]4O[C@H](CO)[C@@H](O)[C@H](O)[C@H]4O[C@@H]4O[C@H](CO)[C@@H](O)[C@H](O)[C@H]4O)C(C)(C)[C@@H]3CC[C@]12C [Compound D5, Ginsenoside Rb1] | mL/min | 0.00633

Moving on to another compound below.
Query: Entry CC(C)=CCC[C@](C)(O)[C@H]1CC[C@]2(C)[C@@H]1[C@H](O)C[C@@H]1[C@@]3(C)CC[C@H](O)C(C)(C)[C@@H]3[C@@H](O[C@@H]3O[C@H](CO)[C@@H](O)[C@H](O)[C@H]3O[C@@H]3O[C@H](CO)[C@@H](O)[C@H](O)[C@H]3O)C[C@]12C [Compound C7, Ginsenoside Rf] has what CL renal?
Reply: 0.322
